- tested_system: T1, eukaryotically produced human IL-6 (Homo sapiens, UniProt P05231)
- T1 construct: purchased Humanzyme HZ-1044; host or cells: Human Embryonic kidney cells
- T1 sequence (P05231 30-212): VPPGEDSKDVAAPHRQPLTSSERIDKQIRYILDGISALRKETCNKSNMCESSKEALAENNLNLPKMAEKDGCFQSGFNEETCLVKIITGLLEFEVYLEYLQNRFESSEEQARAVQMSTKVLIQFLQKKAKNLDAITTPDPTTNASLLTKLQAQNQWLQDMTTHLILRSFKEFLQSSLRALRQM
- measurement_notes: Surface plasmon resonance (Biacore), eukaryotically produced human IL-6 coated on CM5 chip
- Format: binding
- experimental_parameters: euk; periplasmic fractions, 28A6 chain-shuffled
readout_kind: ka (M⁻¹ s⁻¹)
I only need the number, in M⁻¹ s⁻¹, no unit after it.

[in] Entry under review: 55A11d: 28A6 chain-shuffled Fab, periplasmic fraction (antibody, V domains shown) VH: QVQLVESGGGLVQPGGSLRLSCAASGFTFSNYYMTWVRQAPGKGLEWVSSIYSFSGDTAYADSVKGRFTISRDNAKNTLYLQMNSLKSEDTAVYYCTRNLGGVVVTTNGYDYWGQGTQVTVSS VL: DIQMTQSPSSLPTSLGDSVTITCQASQSISDELSWYQQKPGQTPKLLIYGASRLQTGVPSRFSGRGSGTSFTLTISGLEAEDLATYYCLQGYSWPFMFGQGTKVELK . Reported ka?
[out] 101000
